# Assay Info: self-splicing fitness, log relative to wild type (ln ratio); higher = more splicing; Tetrahymena group I intron in knt gene, E. coli kanamycin selection, DiMSum; sequences stand for … in CUCUCU…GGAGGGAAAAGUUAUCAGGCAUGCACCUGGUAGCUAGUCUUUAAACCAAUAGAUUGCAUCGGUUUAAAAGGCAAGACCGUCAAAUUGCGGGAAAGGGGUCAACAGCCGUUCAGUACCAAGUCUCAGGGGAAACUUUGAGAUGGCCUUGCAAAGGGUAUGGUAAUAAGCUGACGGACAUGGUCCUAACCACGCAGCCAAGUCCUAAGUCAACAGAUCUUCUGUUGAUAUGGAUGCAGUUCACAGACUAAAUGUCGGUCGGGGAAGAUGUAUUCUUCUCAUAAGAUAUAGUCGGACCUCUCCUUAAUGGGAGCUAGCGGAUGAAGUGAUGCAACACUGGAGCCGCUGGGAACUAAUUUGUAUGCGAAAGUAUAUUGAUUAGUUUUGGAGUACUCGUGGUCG;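 also: selection with 25 µg/mL kanamycin versus none on LB agar overnight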
# Run Conditions: 37 °C

{"Input Sequence": "GGCGAGCAAUAUUACGAGAU", "self-splicing fitness (ln)": -2.37}
{"Input Sequence": "AUGAAGCAAUAUUACGCCUG", "self-splicing fitness (ln)": -0.209}
{"Input Sequence": "ACCAAGCAAUAUUACGAGGG", "self-splicing fitness (ln)": -1.49}
{"Input Sequence": "CGUAAGCAAUAUUACGUAUC", "self-splicing fitness (ln)": -3.6}
{"Input Sequence": "GUGGAGCAAUAUUACGAUCA", "self-splicing fitness (ln)": -0.101}
{"Input Sequence": "AAUAAGCAAUAUUACGGUAU", "self-splicing fitness (ln)": -1.04}
{"Input Sequence": "UCGAAGCAAUAUUACGCCGU", "self-splicing fitness (ln)": -0.739}
{"Input Sequence": "CCCUAGCAAUAUUACGCCUU", "self-splicing fitness (ln)": -3.08}

----------
# Assay Info: self-splicing fitness, log relative to wild type (ln ratio); higher = more splicing; Tetrahymena group I intron in knt gene, E. coli kanamycin selection, DiMSum; sequences stand for … in CUCUCU…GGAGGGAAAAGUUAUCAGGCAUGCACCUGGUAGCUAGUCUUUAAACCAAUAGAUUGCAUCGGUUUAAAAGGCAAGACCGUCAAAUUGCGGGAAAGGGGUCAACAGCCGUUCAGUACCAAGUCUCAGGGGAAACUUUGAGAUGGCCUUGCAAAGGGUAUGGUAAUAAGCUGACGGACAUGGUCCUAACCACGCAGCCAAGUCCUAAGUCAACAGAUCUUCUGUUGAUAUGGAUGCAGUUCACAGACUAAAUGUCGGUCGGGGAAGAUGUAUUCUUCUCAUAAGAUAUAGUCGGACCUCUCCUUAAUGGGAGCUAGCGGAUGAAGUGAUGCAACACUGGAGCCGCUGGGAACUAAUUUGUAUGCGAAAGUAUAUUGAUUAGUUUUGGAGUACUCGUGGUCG
# Run Conditions: 37 °C
Note: every record was labeled by where its self-splicing fitness (ln) sits among low band (below -2), middle band (-2 to below -0.8), high band (-0.8 or more)

{"Input Sequence": "GACCAGCAAUAUUACGCAAC", "Category Label": "high band"}
{"Input Sequence": "CUUAAGCAAUAUUACGAAUU", "Category Label": "middle band"}
{"Input Sequence": "GCACAGCAAUAUUACGUACC", "Category Label": "high band"}
{"Input Sequence": "AAGGAGCAAUAUUACGCUGU", "Category Label": "middle band"}
{"Input Sequence": "GUGAAGCAAUAUUACGUGGA", "Category Label": "middle band"}
{"Input Sequence": "GAAAAGCAAUAUUACGGCCU", "Category Label": "high band"}
{"Input Sequence": "GUGAAGCAAUAUUACGUCAA", "Category Label": "high band"}
{"Input Sequence": "GGGAAGCAAUAUUACGUCAG", "Category Label": "low band"}
{"Input Sequence": "CUGCAGCAAUAUUACGGGAA", "Category Label": "low band"}
{"Input Sequence": "CAGCAGCAAUAUUACGUCAC", "Category Label": "low band"}
{"Input Sequence": "AAUAAGCAAUAUUACGCGCU", "Category Label": "high band"}
{"Input Sequence": "GUCUAGCAAUAUUACGUAGG", "Category Label": "middle band"}
{"Input Sequence": "CGCCAGCAAUAUUACGGAUC", "Category Label": "middle band"}
{"Input Sequence": "GAUUAGCAAUAUUACGACGG", "Category Label": "low band"}
{"Input Sequence": "UGCCAGCAAUAUUACGAGAU", "Category Label": "low band"}
